target.or.test.system: c-Src SH2;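 note: peptide library displayed on the E. coli surface as eCPX fusions, selected cells deep-sequenced, score is each peptide's frequency after selection divided by its frequency in the input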
experimental.details: SH2 binding enrichment of the phosphorylated peptide, bacterial display (enrichment ratio); higher = better substrate or ligand; peptides without Tyr show the background
endpoint: SH2 binding enrichment

Examples from the recorded data:
| biopolymer.sequence | SH2 binding enrichment |
| --- | --- |
| RYFTTYDTNGR [CLCA1_Y665] | 0.556 |
| RVILRYVNPGT [LAMA3_Y791] | 0.717 |
| QDLRLYRPHLA [BTK_Y617_G613D] | 0.581 |
| LGSVVYAHSKE [KCNQ2_Y226] | 0.467 |
| FADGVYQALEE [DUOX2_Y70_YF] | 0.75 |

A = SVTCTYSPALD [TP53_Y126_N131D]
B = NHRNQYQALKP [CLSPN_Y887]
**Query** Select one. Lower SH2 binding enrichment: A or B Answer by quoting the chosen item's label.
**Result** A

a = KALKQYRASPS [DDX27_Y763_G766S]
b = TLARLYHPDST [LRIG1_Y1029]
**Query** Select one. Lower SH2 binding enrichment: a or b Answer by quoting the chosen item's label.
**Result** b
